Molecular target: human PD-1 / PD-L1-Ig binding on Jurkat cell line over-expressing human PD-1 (Jurkat-PD-1) (Homo sapiens, UniProt Q15116)
Construct: expressed in transfected cells; host or cells: Jurkat
Sequence (Q15116 25-288): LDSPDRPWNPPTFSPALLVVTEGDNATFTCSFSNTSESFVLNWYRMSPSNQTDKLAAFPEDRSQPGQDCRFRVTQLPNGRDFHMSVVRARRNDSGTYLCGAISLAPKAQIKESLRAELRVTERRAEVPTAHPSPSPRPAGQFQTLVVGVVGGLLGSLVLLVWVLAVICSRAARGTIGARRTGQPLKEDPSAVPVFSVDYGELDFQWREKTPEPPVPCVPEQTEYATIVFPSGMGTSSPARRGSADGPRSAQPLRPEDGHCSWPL
Test: Jurkat-PD-1 Cell Binding High-Content Screening Assay (CBA)
Type: cell-based
Conditions: Jurkat-PD-1 cells, PE-labeled PD-L1-Ig 20 nM final; read-out: Jurkat HPD1_PDL1 IC50
Where a SMILES comes first, the peptide text is derived from it. Bridges are numbered along the chain shown (N, C = ends). [ ]: non-standard residue; d: D form. Bip = N[C@@H](Cc1ccc(-c2ccccc2)cc1)C(=O)O; Cit = NC(=O)NCCC[C@H](N)C(=O)O; Orn = NCCC[C@H](N)C(=O)O; Dab = NCC[C@H](N)C(=O)O
result type: pIC50
Answers are plain numbers, as −log10 of the molar value.

Provide each entry's pIC50 from the list below.
1. CCC(C)[C@@H]1NC(=O)[C@H](Cc2ccc(-c3ccccc3)cc2)NC(=O)[C@H](C(C)C)NC(=O)[C@H](Cc2cc(C)ccc2C)NC(=O)[C@H](CC(=O)O)NC(=O)[C@H](Cc2ccc(OCC(=O)O)cc2)NC(=O)[C@H](CN)NC(=O)CSC[C@@H](C(=O)N[C@@H](C)C(N)=O)NC(=O)[C@H]([C@@H](C)O)NC(=O)[C@H](C(C)C)NC(=O)[C@H](CC2CCCCC2)NC(=O)[C@H](CCN)NC(=O)[C@@H](CC(C)C)NC(=O)[C@H](CCCN)NC1=O (stereo partly shown)
2. CC(C)C[C@@H]1NC(=O)[C@H](CCN)NC(=O)[C@@H](CC(C)C)NC(=O)[C@H](CCCN)NC(=O)[C@H](CCCNC(N)=O)NC(=O)[C@H](Cc2ccc(-c3ccccc3)cc2)NC(=O)[C@H](C(C)C)NC(=O)[C@H](Cc2c[nH]c3ccccc23)NC(=O)[C@H](CC(=O)O)NC(=O)[C@H](Cc2ccc(O)cc2)NC(=O)[C@H](CC(N)=O)NC(=O)CSC[C@@H](C(=O)N[C@@H](C)C(N)=O)NC(=O)[C@H]([C@@H](C)O)NC(=O)[C@H](C(C)C)NC1=O [Compound 1017] ({CH2CO}-NYDWV[Bip][Cit][Orn][dL][Dab]LVTCA-NH2; thioether N-14)
3. CC(C)C[C@@H]1NC(=O)[C@H](Cc2c[nH]c3ccccc23)NC(=O)[C@H](CC(=O)O)NC(=O)[C@H](Cc2ccc(O)cc2)NC(=O)[C@H](Cc2ccccc2)NC(=O)CSC[C@@H](C(=O)NCC(N)=O)NC(=O)[C@H](CO)NC(=O)[C@H](C(C)C)NC(=O)[C@H](CC(C)C)NC(=O)[C@H](CC(N)=O)NC(=O)[C@@H](C)NC(=O)[C@H](CCCN)NC(=O)[C@H](C(C)C)NC(=O)[C@H](Cc2ccc(-c3ccccc3)cc2)NC1=O [Compound 1093] ({CH2CO}-FYDWL[Bip]V[Orn][dA]NLVSCG-NH2; thioether N-14)

Ans.
[7.49, 7.69, 6.92]

Qu. Given the compound CC(C)C[C@@H]1NC(=O)[C@H](Cc2c[nH]c3ccccc23)NC(=O)[C@H](CC(=O)O)NC(=O)[C@H](Cc2ccc(O)cc2)NC(=O)[C@H](Cc2ccccc2)NC(=O)CSC[C@@H](C(=O)N[C@@H](C)C(N)=O)NC(=O)[C@H](CO)NC(=O)[C@H](C(C)C)NC(=O)[C@H](CC(C)C)NC(=O)[C@H](CCN)NC(=O)[C@@H](CC(C)C)NC(=O)[C@H](CCN)NC(=O)[C@H](C(C)C)NC(=O)[C@H](Cc2ccc(-c3ccccc3)cc2)NC1=O [Compound 1061] ({CH2CO}-FYDWL[Bip]V[Dab][dL][Dab]LVSCA-NH2; thioether N-14) , what is its reported pIC50?
Ans. 8.06

# credit: patent US20250163104A1
